Data origin: patent US4468394A

- System: Kleb. pneumoniae EK-6
- experiment description: Antibacterial activity (MIC), Kleb. pneumoniae EK-6
- Type: cell-based
- measurement setup: Klebsiella pneumoniae, EK6, Table 2
Known MIC of a selection of compounds
property measured: MIC (µg/mL)

>>> reading("Cc1nnc(SCC2=C(C(=O)O)N3C(=O)[C@@H](NC(=O)[C@H](NC(=O)c4cc5cc(O)c(O)cc5[nH]c4=O)c4ccc(O)cc4)[C@H]3SC2)s1 [Example 34]")
0.4
>>> reading("Cn1nnnc1SCC1=C(C(=O)O)N2C(=O)[C@@H](NC(=O)[C@H](NC(=O)c3cc4cc(O)c(O)cc4oc3=O)c3ccc(O)cc3)[C@H]2SC1 [Example 20]")
0.2
>>> reading("CC(=O)Oc1cc2cc(C(=O)N[C@@H](C(=O)N[C@@H]3C(=O)N4[C@@H]3SC(C)(C)[C@@H]4C(=O)O)c3ccccc3)c(=O)oc2cc1OC(C)=O [Example 14]")
0.2
>>> reading("CC(=O)OCC1=C(C(=O)O)N2C(=O)[C@@H](NC(=O)[C@H](NC(=O)c3cc4ccc(O)c(O)c4oc3=O)c3ccc(O)cc3)[C@H]2SC1 [Example 25]")
0.1
>>> reading("CC(=O)Oc1cc2cc(C(=O)N[C@@H](C(=O)N[C@@H]3C(=O)N4[C@@H]3SC(C)(C)[C@@H]4C(=O)O)c3ccccc3)c(=O)sc2cc1OC(C)=O [Example 28]")
0.1
>>> reading("CC(=O)OCC1=C(C(=O)O)N2C(=O)[C@@H](NC(=O)[C@H](NC(=O)c3cc4cc(OC(C)=O)c(OC(C)=O)cc4n(C)c3=O)c3ccc(O)cc3)[C@H]2SC1 [Example 35]")
0.8
>>> reading("CC1(C)S[C@@H]2[C@H](NC(=O)[C@H](NC(=O)c3cc4ccccc4oc3=O)c3ccccc3)C(=O)N2[C@H]1C(=O)O [reference compound]")
12.5

----------
Here, each record is paired with measured MIC data.
- Tested on: Kleb. pneumoniae EK-6
- experiment description: Antibacterial activity (MIC), Kleb. pneumoniae EK-6
- Type: cell-based
- measurement setup: Klebsiella pneumoniae, EK6, Table 1
Structures can show the parent of a compound that is named as a salt.
property measured: MIC

>>> reading("O=C(O)Cn1nnnc1SCC1=C(C(=O)O)N2C(=O)[C@@H](NC(=O)[C@H](NC(=O)c3csc4cc(O)c(O)cc4c3=O)c3ccc(O)cc3)[C@H]2SC1")
"≤ 0.012 µg/mL"
>>> reading("CCn1cc(C(=O)N[C@@H](C(=O)N[C@@H]2C(=O)N3C(C(=O)O)=C(CSc4nnc(C)s4)CS[C@H]23)c2ccc(O)cc2)c(=O)c2cc(O)c(O)cc21")
"0.05 µg/mL"
>>> reading("CO[C@@]1(NC(=O)[C@H](NC(=O)c2csc3cc(OC(C)=O)c(OC(C)=O)cc3c2=O)c2ccc(O)cc2)C(=O)N2C(C(=O)O)=C(COC(C)=O)CS[C@@H]21")
"0.024 µg/mL"
>>> reading("CCn1cc(C(=O)N[C@@H](C(=O)N[C@@H]2C(=O)N3[C@@H]2SC(C)(C)[C@@H]3C(=O)O)c2ccccc2)c(=O)c2cc(OC(C)=O)c(OC(C)=O)cc21")
"0.2 µg/mL"
>>> reading("CCn1cc(C(=O)N[C@@H](C(=O)N[C@@H]2C(=O)N3C(C(=O)O)=C(CSc4nnnn4CC(=O)O)CS[C@H]23)c2ccc(O)cc2)c(=O)c2cc(OC(C)=O)c(OC(C)=O)cc21")
"0.024 µg/mL"
>>> reading("CC1(C)S[C@@H]2[C@H](NC(=O)[C@H](NC(=O)c3cnc4cccnc4c3O)c3ccccc3)C(=O)N2[C@H]1C(=O)O [reference compound]")
"3.13 µg/mL"
>>> reading("CCn1cc(C(=O)N[C@@H](C(=O)N[C@@H]2C(=O)N3C(C(=O)O)=C(CSc4nnc(C)s4)CS[C@H]23)c2ccc(O)cc2)c(=O)c2cc(OC(C)=O)c(O)cc21 [Example 12, sodium salt]")
"0.024 µg/mL"

----------
- System: Pseud. aeruginosa EP-069
- experiment description: Antibacterial activity (MIC), Pseud. aeruginosa EP-069
- Assay type: cell-based
- measurement setup: Pseudomonas aeruginosa, EP069, Table 2
Listed below: MIC values for each entry.
property measured: MIC (mg/L)

>>> reading("CC(=O)OCC1=C(C(=O)O)N2C(=O)[C@@H](NC(=O)[C@H](NC(=O)c3cc4cc(OC(C)=O)c(OC(C)=O)cc4n(C)c3=O)c3ccc(O)cc3)[C@H]2SC1 [Example 35]")
1.56
>>> reading("CC(=O)Oc1cc2cc(C(=O)N[C@@H](C(=O)N[C@@H]3C(=O)N4[C@@H]3SC(C)(C)[C@@H]4C(=O)O)c3ccccc3)c(=O)oc2cc1OC(C)=O [Example 14]")
1.56
>>> reading("Cn1nnnc1SCC1=C(C(=O)O)N2C(=O)[C@@H](NC(=O)[C@H](NC(=O)c3cc4cc(O)c(O)cc4oc3=O)c3ccc(O)cc3)[C@H]2SC1 [Example 20]")
0.8
>>> reading("CC1(C)S[C@@H]2[C@H](NC(=O)[C@H](NC(=O)c3cc4ccccc4oc3=O)c3ccccc3)C(=O)N2[C@H]1C(=O)O [reference compound]")
12.5
>>> reading("CC(=O)OCC1=C(C(=O)O)N2C(=O)[C@@H](NC(=O)[C@H](NC(=O)c3cc4ccc(O)c(O)c4oc3=O)c3ccc(O)cc3)[C@H]2SC1 [Example 25]")
1.56
>>> reading("O=C(O)Cn1nnnc1SCC1=C(C(=O)O)N2C(=O)[C@@H](NC(=O)[C@H](NC(=O)c3cc4ccc(O)c(O)c4oc3=O)c3ccc(O)cc3)[C@H]2SC1 [Example 27]")
1.56
>>> reading("Cc1nnc(SCC2=C(C(=O)O)N3C(=O)[C@@H](NC(=O)[C@H](NC(=O)c4cc5cc(O)c(O)cc5[nH]c4=O)c4ccc(O)cc4)[C@H]3SC2)s1 [Example 34]")
3.13
>>> reading("CC(=O)Oc1cc2cc(C(=O)N[C@@H](C(=O)N[C@@H]3C(=O)N4[C@@H]3SC(C)(C)[C@@H]4C(=O)O)c3ccccc3)c(=O)sc2cc1OC(C)=O [Example 28]")
3.13

----------
- Test system: Pseud. aeruginosa EP-071
- experiment description: Antibacterial activity (MIC), Pseud. aeruginosa EP-071
- Format: cell-based
- measurement setup: Pseudomonas aeruginosa, EP071, Table 2
property measured: MIC (µg/mL)

>>> reading("CC(=O)OCC1=C(C(=O)O)N2C(=O)[C@@H](NC(=O)[C@H](NC(=O)c3cc4cc(OC(C)=O)c(OC(C)=O)cc4n(C)c3=O)c3ccc(O)cc3)[C@H]2SC1 [Example 35]")
0.2
>>> reading("CC(=O)Oc1cc2cc(C(=O)N[C@@H](C(=O)N[C@@H]3C(=O)N4[C@@H]3SC(C)(C)[C@@H]4C(=O)O)c3ccccc3)c(=O)oc2cc1OC(C)=O [Example 14]")
0.2
>>> reading("CC(=O)Oc1cc2cc(C(=O)N[C@@H](C(=O)N[C@@H]3C(=O)N4[C@@H]3SC(C)(C)[C@@H]4C(=O)O)c3ccccc3)c(=O)sc2cc1OC(C)=O [Example 28]")
0.1
>>> reading("Cn1nnnc1SCC1=C(C(=O)O)N2C(=O)[C@@H](NC(=O)[C@H](NC(=O)c3cc4cc(O)c(O)cc4oc3=O)c3ccc(O)cc3)[C@H]2SC1 [Example 20]")
0.2
>>> reading("CC1(C)S[C@@H]2[C@H](NC(=O)[C@H](NC(=O)c3cc4ccccc4oc3=O)c3ccccc3)C(=O)N2[C@H]1C(=O)O [reference compound]")
1.56
>>> reading("CC(=O)OCC1=C(C(=O)O)N2C(=O)[C@@H](NC(=O)[C@H](NC(=O)c3cc4ccc(O)c(O)c4oc3=O)c3ccc(O)cc3)[C@H]2SC1 [Example 25]")
0.1
>>> reading("O=C(O)Cn1nnnc1SCC1=C(C(=O)O)N2C(=O)[C@@H](NC(=O)[C@H](NC(=O)c3cc4ccc(O)c(O)c4oc3=O)c3ccc(O)cc3)[C@H]2SC1 [Example 27]")
0.1
>>> reading("Cc1nnc(SCC2=C(C(=O)O)N3C(=O)[C@@H](NC(=O)[C@H](NC(=O)c4cc5cc(O)c(O)cc5[nH]c4=O)c4ccc(O)cc4)[C@H]3SC2)s1 [Example 34]")
0.4
